- tested-on: T1, canine CD20 (canine, UniProt Q3C2E2 1-297)
- T1 chain: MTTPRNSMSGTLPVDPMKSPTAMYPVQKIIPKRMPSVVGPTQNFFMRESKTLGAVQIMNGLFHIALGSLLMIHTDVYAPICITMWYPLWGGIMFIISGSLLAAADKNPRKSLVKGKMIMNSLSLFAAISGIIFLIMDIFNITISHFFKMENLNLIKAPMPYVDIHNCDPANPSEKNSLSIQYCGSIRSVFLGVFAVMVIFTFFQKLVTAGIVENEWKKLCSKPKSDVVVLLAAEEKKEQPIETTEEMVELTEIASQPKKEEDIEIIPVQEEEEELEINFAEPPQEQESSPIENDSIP
- protocol-details: cell-based or functional assay
Please respond with reported CDC Maximum killing (%) for every item in the list.
Give the quantity in %, number only.

Lookup: I'd like to know its CDC Maximum killing (%). The binder in question is PMX081 (antibody, V domains shown) VH: EVQLVQSGGDLVKPGGSLRLSCVASGYTFTRYHMSWVRQAPGKGLQWVAFINSDGTGITYGDAVKGRFTISRDNAKNTLYLQMNSLRAEDTAIYYCTTFDSWGQGTLVTVSS VL: SYVLTQLPSKNVTLKQPAHITCGGDNIGSKSVHWYQQKLGQAPILIIYYDSRRPTGIPERFSGANSGNTATLTISGALAEDEADYYCQVWDSSGNVFGGGTHLTVL
Found: 98.5

Lookup: Record: PMX070 (antibody, V domains shown) VH: EMQLVESGGDLVKPGGSLRLSCVASGFTFSRYHMSWVRQAPGKGLQWVAYINSGGSPTNYADAVKGRFTISRDNAKNTLYLQMNSLRAEDTAVYYCTTYDQWGQGTLVTVSS VL: SYVLTQLPSKSVTLKQPAHITCGGDNIGSKSVHWYQQKLGQAPVLIIYYDSSRPTGIPERFSGANSGNTATLTISGALAEDEADYYCQVWDTSANVFGGGTHLTVL
Found: 97.1

Lookup: Let us now turn to PMX003 mAb (antibody, V domains shown) VH: EVQLVESGGDLVKPGGSLRLSCVASGITFSRYHMSWVRQAPGKGLQWVAYINSGGSSTSYPDAVKGRFTISRDNAKNTLYLQMDSLRAEDTALYYCTTFDYWGQGTLVTVSS VL: SYVLTQLPSKNVTLKQPAHITCGGDNIGSKSVHWYQQKLGQAPVLIIYYDSRRPTGIPERFSGANSGNTATLTISGALAEDEADYYCQVWDSSANVFGGGTHLTVLG
Found: 90.4
